src = patent US5047534A

- studyTarget: adenosine A-2 receptors (Rattus norvegicus, UniProt P30543)
- Construct: tissue Charles River (animals)
- Sequence (P30543 whole entry): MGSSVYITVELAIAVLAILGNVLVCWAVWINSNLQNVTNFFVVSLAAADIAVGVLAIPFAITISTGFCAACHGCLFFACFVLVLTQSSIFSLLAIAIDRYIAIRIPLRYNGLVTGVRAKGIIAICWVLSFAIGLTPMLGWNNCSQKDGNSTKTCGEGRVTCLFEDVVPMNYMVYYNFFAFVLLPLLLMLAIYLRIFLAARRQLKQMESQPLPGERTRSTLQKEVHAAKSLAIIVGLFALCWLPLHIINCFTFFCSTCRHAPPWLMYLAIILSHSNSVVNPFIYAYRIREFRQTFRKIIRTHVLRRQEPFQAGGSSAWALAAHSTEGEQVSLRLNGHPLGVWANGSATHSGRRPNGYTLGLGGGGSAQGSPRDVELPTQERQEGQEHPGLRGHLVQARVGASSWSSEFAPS
- protocolText: Test for affinity for brain adenosine A-2 receptors ([3H]NECA displacement, striatal membranes)
- conditionNotes: read-out: A2 Ki
pKi: −log10 of the molar value.
Where pKi equals or exceeds 6, the correct label is Criterion met; where it does not, the label is Criterion not met.

compound	labelClass
CCCn1c(=O)c2[nH]c(C3Cc4ccccc4C3)nc2n(CCC)c1=O	Criterion not met
C=CCn1c(=O)c2[nH]c(C(C)c3ccccc3)nc2n(CC=C)c1=O (stereo not drawn)	Criterion not met
CCCn1c(=O)c2[nH]c([C@H](CC)c3ccccc3)nc2n(CCC)c1=O	Criterion met
CCCn1c(=O)c2[nH]c(C(C)Cc3ccccc3)nc2n(CCC)c1=O (racemic)	Criterion met
CCCn1c(=O)c2[nH]c([C@@H](CC)c3ccccc3)nc2n(CCC)c1=O	Criterion not met
CCCn1c(=O)c2nc(C(C)c3ccccc3)[nH]c2n(CCC)c1=O (stereo not drawn)	Criterion not met
CCCn1c(=O)c2nc(C(CO)Cc3ccccc3)[nH]c2n(CCC)c1=O (stereo not drawn)	Criterion not met
CCCC(Cc1ccccc1)c1nc2c(=O)n(CCC)c(=O)n(CCC)c2[nH]1 (racemic)	Criterion met
CCCn1c(=O)c2[nH]c([C@H](C)Cc3ccccc3)nc2n(CCC)c1=O	Criterion met

Let us examine a further case.
Query :: Can CCCn1c(=O)c2nc(C(CC)Cc3ccccc3)[nH]c2n(CCC)c1=O (stereo not drawn) be said to have pKi at or above 6?
Result :: Criterion not met

###

- studyTarget: Adenosine A-1 receptor (Rattus norvegicus)
- Sequence (P25099 1-326): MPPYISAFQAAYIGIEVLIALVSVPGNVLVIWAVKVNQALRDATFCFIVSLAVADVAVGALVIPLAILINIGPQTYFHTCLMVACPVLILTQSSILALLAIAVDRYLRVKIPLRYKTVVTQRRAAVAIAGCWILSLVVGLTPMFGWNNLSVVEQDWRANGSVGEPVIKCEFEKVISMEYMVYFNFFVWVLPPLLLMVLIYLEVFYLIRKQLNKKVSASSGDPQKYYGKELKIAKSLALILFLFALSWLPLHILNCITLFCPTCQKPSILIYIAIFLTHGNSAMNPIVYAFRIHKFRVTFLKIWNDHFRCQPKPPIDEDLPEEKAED
- protocolText: Test for affinity for brain adenosine A-1 receptor binding sites ([3H]cyclohexyladenosine displacement, whole brain membranes)
- conditionNotes: ratio of A2 Ki to A1 Ki
testReadout: A2/A1
One number for each entry.

Examples with answers:
compound	assayResult
C=CCn1c(=O)c2[nH]c(C(C)c3ccccc3)nc2n(CC=C)c1=O (stereo not shown)	119
CCCn1c(=O)c2[nH]c([C@H](CC)c3ccccc3)nc2n(CCC)c1=O	404
CCCn1c(=O)c2[nH]c([C@@H](CC)c3ccccc3)nc2n(CCC)c1=O	30

Query :: Param item = CCCn1c(=O)c2[nH]c(C(CC)c3ccccc3)nc2n(CCC)c1=O (racemic) ; retrieve measured A2/A1.
Result :: 216
